# Ki listing for each entry below
- targetUnderTest: 5-hydroxytryptamine receptor 2C (Homo sapiens)
- Sequence (P28335 whole entry): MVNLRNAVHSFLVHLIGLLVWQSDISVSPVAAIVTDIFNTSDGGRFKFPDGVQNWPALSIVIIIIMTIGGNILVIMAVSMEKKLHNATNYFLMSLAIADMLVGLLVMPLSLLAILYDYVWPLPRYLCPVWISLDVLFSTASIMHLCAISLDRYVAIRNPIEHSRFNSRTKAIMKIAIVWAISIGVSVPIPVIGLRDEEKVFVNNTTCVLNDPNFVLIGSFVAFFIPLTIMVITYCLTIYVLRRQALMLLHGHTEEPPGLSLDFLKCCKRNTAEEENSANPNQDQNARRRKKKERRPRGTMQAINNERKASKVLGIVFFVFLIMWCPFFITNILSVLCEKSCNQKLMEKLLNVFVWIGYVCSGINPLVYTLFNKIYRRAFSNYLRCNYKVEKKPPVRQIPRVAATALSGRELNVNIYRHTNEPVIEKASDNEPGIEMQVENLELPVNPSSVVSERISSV
Structures can show the parent of a compound that is named as a salt.
outcomeMeasure: Ki (nM)

{"compound": "C[C@@H](NCCCc1cccc(C(F)(F)F)c1)c1cccc2ccccc12 [CINACALCET HYDROCHLORIDE]", "measurementUnits": "nM", "measuredResult": 658}
{"compound": "CN(C)C(=O)N[C@H]1CC[C@H](CCN2CCN(c3cccc(Cl)c3Cl)CC2)CC1 [CARIPRAZINE HYDROCHLORIDE]", "measurementUnits": "nM", "measuredResult": 1250}
{"compound": "COc1cc(-n2cnc3cc(-c4ccc(Cl)cc4)sc3c2=O)ccc1OCCN1CCCC1", "measurementUnits": "nM", "measuredResult": 893}
